test system: K562; test: NCI tumour cell line growth inhibition, 48 h
The source made the active and inactive calls. Cut-off read from the data, not from the text of the source: active = GI50 up to about 1.1 µM and inactive = higher.
A correct response names exactly one class from true (1) for active, false (0) for inactive

Exercise: Returns: the outcome recorded for O=C(C(=O)n1ccc2ccccc21)n1ccc2ccccc21 in this assay.
Key: false (0)

Exercise: Hello, I am checking results. What call was entered for COc1ccc2c(c1)OCC1=C2Oc2ccccc2C1 ?
Key: false (0)

Exercise: Which outcome was entered for the molecule NC1c2c(Cl)sc(Cl)c2C(=O)C1O (stereo unspecified) in this test?
Key: false (0)

Exercise: Field: outcome | Entry: COC(=O)C1(Cc2ccc3c(c2)CCC3)Cc2ccccc2C1O (stereo unspecified)
Key: false (0)

Exercise: Write down the call the test reported for this molecule. Item: CCN(CC)Cc1cc(Nc2ccnc3ccc4nn(C)nc4c23)ccc1O
Key: false (0)

Exercise: Dear colleague, could you share the recorded outcome for Oc1c(/N=N/c2ccccc2)c2ccccc2c2ccc3ccccc3c12 when you have a moment?
Key: false (0)

Exercise: Tell me the assay call for O=C(N/C(=C/c1cccc([N+](=O)[O-])c1)c1nc2cc(Cl)ccc2[nH]1)c1ccccc1 please.
Key: false (0)

Exercise: Identify the outcome logged in this assay for the molecule shown: Cc1ccc(-n2cnc(C(=N)C#N)c2N)cc1
Key: false (0)

Exercise: Called result for CC(C)COC(=O)OC(=O)c1ccc(N(C)Cc2cnc3nc(N)nc(N)c3n2)cc1
Key: true (1)

Exercise: // param item: C[C@]12CCC3[C@@H](CC[C@@H]4c5nonc5CC[C@]34C)C1C/C(=N/O)C2=O (stereo partly specified) ; yields the recorded call
Key: false (0)

Exercise: What classification did C(=C\c1ccccc1)/C=N/c1ccc2c(c1)Cc1ccccc1-2 end up with in this test?
Key: false (0)

Hello, the source for this data is ChEMBL document CHEMBL1201862, in case you need it.
